- Experimental Target: UniProt P43116
- Sequence (P43116 whole entry, looked up): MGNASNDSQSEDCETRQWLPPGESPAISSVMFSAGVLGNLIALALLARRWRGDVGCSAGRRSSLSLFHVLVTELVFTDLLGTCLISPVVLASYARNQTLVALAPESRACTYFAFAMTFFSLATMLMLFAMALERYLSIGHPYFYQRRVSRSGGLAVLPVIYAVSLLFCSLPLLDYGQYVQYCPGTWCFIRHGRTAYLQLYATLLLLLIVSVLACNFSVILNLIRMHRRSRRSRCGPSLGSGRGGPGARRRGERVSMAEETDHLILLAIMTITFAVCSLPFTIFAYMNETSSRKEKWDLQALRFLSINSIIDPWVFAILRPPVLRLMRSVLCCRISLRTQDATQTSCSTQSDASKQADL
- Procedure Details: EP2 receptor modulators, dose response, cell-based, human EP2, PGE2 EC50 shift (AID 1421)
- Measurement Setup: EP2-expressing cells, PGE2 EC50 shift by compound; measured here: PGE2 EC50 at 6.7 uM compound
Measure Name: PGE2 EC50 with compound (nM)

{"columns": ["Molecule", "Experimental Target", "Readout Units", "Reported Measurement"],
 "data": [
  ["Cc1ccc2nc(Nc3ccc4[nH]c(=O)[nH]c4c3)c(-n3nc(C)cc3C)nc2c1", "UniProt P43116", "nM", 2.69],
  ["O=C(O)c1cc2c(s1)-c1ccccc1OC2", "UniProt P43116", "nM", 0.91],
  ["CSc1nc(Oc2ccccc2)c2sccc2n1", "UniProt P43116", "nM", 0.93],
  ["COc1ccc(C(=O)O)cc1NC(=S)NC(=O)c1ccc(-c2ccc(Cl)cc2)o1", "UniProt P43116", "nM", 0.36],
  ["Cc1cccc(-c2csc(N)c2C(=O)OC(C)C)c1", "UniProt P43116", "nM", 0.97],
  ["O=C(O)CSc1cc(-c2ccccc2)nc2ccccc12", "UniProt P43116", "nM", 2.55],
  ["CC(OC(=O)c1oc2ccccc2c1COc1ccccc1)C(=O)NC(N)=O (stereo unspecified)", "UniProt P43116", "nM", 2.83],
  ["Cc1scc(-c2n[nH]c(=S)n2Cc2ccccc2)c1C", "UniProt P43116", "nM", 2.55],
  ["CC1CN(c2nc3ccccc3cc2-c2ccccc2)CC(C)O1 (stereo unspecified)", "UniProt P43116", "nM", 0.53],
  ["N#CC1=C(S)N(c2ccccc2)C2(CCCCC2)NC1=O", "UniProt P43116", "nM", 1.12],
  ["CCOC(=O)CSc1nnc2n(C3CCCCC3)c(=O)c3c4c(sc3n12)CCCC4", "UniProt P43116", "nM", 1.13]
]}
